tested on: Klebsiella pneumoniae (KPN) isolates; assay: MIC of compounds alone and combined with antibacterials, broth microdilution (CLSI); assay type: cell-based; details: KPN UFR25; AF1 @ 4 μg/mL
testReadout: MIC ATB in combination

[[record]]
testsmiles = "C=CC1=C(C(=O)O)N2C(=O)[C@@H](NC(=O)/C(=N\\O)c3csc(N)n3)[C@H]2SC1"
testreadout = "MIC ATB in combination"
measured = "<=0.25 μg/mL"

[[record]]
testsmiles = "COCC1=C(C(=O)O)N2C(=O)[C@@H](NC(=O)/C(=N\\OC)c3csc(N)n3)[C@H]2SC1"
testreadout = "MIC ATB in combination"
measured = "<=0.25 μg/mL"

[[record]]
testsmiles = "C=CC1=C(C(=O)O)N2C(=O)[C@@H](NC(=O)/C(=N\\OCC(=O)O)c3csc(N)n3)[C@H]2SC1"
testreadout = "MIC ATB in combination"
measured = "<=0.25 μg/mL"


Data origin, for the record: patent US20200017496A1
